- Tested on: CDC2L2
- Study Conditions: Compound Concentration (nM):1000;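 note: KINOMEscan scanMAX binding as percent activity remaining versus control; lower means stronger binding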
Experimental Endpoint: Percent Control (%)

# Compound, Measured Number
rows = [
    ("CC1=C(C(=O)Nc2ccc3[nH]ncc3c2)C(c2ccc(Cl)c(Cl)c2)CC(=O)N1 (centres unmarked) [GSK299115A]", 96),
    ("COC(=O)Nc1nc2ccc(Oc3ccc(NC(=O)Nc4cc(C(F)(F)F)ccc4F)cc3)cc2s1.Cl [GW693917A]", 78),
    ("COc1cc2ncn(-c3cc(O[C@H](C)c4ccccc4Cl)c(C(N)=O)s3)c2cc1OC [GSK237701A]", 97),
    ("Cl.O=C(Nc1ccc(Oc2ccc3[nH]c(NC(=O)c4ccccc4)nc3c2)cc1)Nc1cc(C(F)(F)F)ccc1F [GW709042A]", 100),
    ("COc1ccc(COc2ccc(Cc3cnc(N)nc3N)cc2OC)cc1 [GW632580X]", 75),
    ("COc1cc(/C=N/Nc2ncnc3[nH]ncc23)ccc1O [GW578748X]", 100),
    ("Cl.O=C(Nc1ccc(Oc2ccc3[nH]c(NC(=O)c4ccco4)nc3c2)cc1)Nc1cc(C(F)(F)F)ccc1F [GW683134A]", 100),
    ("COc1cc(N2CCN(C(C)C)CC2)ccc1Nc1nc(Nc2ccc(F)cc2C(=O)NC[C@@H](O)CO)c2cc[nH]c2n1 [GSK1392956A]", 100),
    ("NS(=O)(=O)c1ccc(N/N=C2\\C(=O)Nc3ccc(-c4cnco4)cc32)cc1 [GW276655]", 100),
    ("COc1cccc(-n2ncc3c(N/N=C/c4ccncc4)ncnc32)c1 [GW784752X]", 97),
    ("CN1CCN(C(=O)c2ccc(NC(=O)Nc3ccc(N(C)c4ccnc(Nc5ccc(CS(C)(=O)=O)cc5)n4)cc3)cc2)CC1.Cl [GW830263A]", 51),
    ("CN(C)c1cc2c(Nc3ccc4c(cnn4Cc4ccccc4)c3)ncnc2cn1 [GW282974X]", 100),
    ("Cc1cc(O)cc(C)c1/C=C/c1cncc(C(N)=O)c1 [GW435821X]", 97),
    ("CCc1ccc(Oc2nccc(-c3c(-c4ccc(F)cc4)ncn3C3CCNCC3)n2)cc1 [SB-242719]", 66),
    ("NS(=O)(=O)c1ccc(N/N=C2\\C(=O)Nc3ccc(C(=O)NCCc4c[nH]cn4)cc32)cc1 [GW300660X]", 100),
    ("NS(=O)(=O)c1ccc(Nc2ncc(-c3ccccc3)o2)cc1 [GW572399X]", 100),
    ("CCS(=O)(=O)c1ccc(OC)c(Nc2ncc(-c3cccc(F)c3)o2)c1 [GW621970X]", 99),
]

====

- System: SIK2
- Study Conditions: Compound Concentration (nM):1000

# Compound, Target Under Test, Percent Control, %
rows = [
    ("NS(=O)(=O)c1ccc(N/N=C2\\C(=O)Nc3ccc(C(=O)NCc4ccncc4)cc32)cc1 [GW300657X]", "SIK2", 100),
    ("COc1cccc(-c2c[nH]c3c(N/N=C/c4ccncc4)ncnc23)c1 [GW814408X]", "SIK2", 17),
    ("CCn1c(-c2nonc2N)nc2c(C#CC(C)(C)O)nc(OCCNC)cc21.Cl", "SIK2", 90),
    ("COc1ccc2cc(-c3c(-c4ccncc4)nc(-c4ccc(S(C)(=O)=O)cc4C)n3C)ccc2c1", "SIK2", 100),
    ("COc1cc(C=NNc2ncnc3c2cnn3-c2ccccc2)ccc1O [GW513184X]", "SIK2", 61),
    ("CC1=C(C(=O)Nc2ccc3[nH]ncc3c2)C(c2ccc(Cl)c(Cl)c2)CC(=O)N1 (centres unmarked) [GSK299115A]", "SIK2", 87),
    ("Cl.O=S1CCN(Cc2ccc(-c3ccc4ncnc(Nc5ccc(OCc6ccccc6)c(F)c5)c4c3)o2)CC1 [GW576924A]", "SIK2", 81),
    ("COc1cc(N2CCN(C(C)C)CC2)ccc1Nc1nc(Nc2ccc(F)cc2C(=O)NC[C@@H](O)CO)c2cc[nH]c2n1 [GSK1392956A]", "SIK2", 100),
]

====

- Tested on: LRRK2(G2019S)
- Study Conditions: Compound Concentration (nM):1000
Mark each entry True if its Percent Control sits below 80%, and False for all others.

# Molecule, Category
data = [
    ("C/C(Nc1ccc(S(N)(=O)=O)cc1)=C1/C(=O)Nc2ccccc21 [GW335962X]", "True"),
    ("CCS(=O)(=O)c1ccc(OC)c(Nc2ncc(-c3cccc(OC)c3)o2)c1 [GW580509X]", "False"),
    ("COc1cc2ncnc(Nc3ccc4c(cnn4Cc4ccccc4)c3)c2cc1OC.Cl [GW282449A]", "False"),
    ("COC(=O)Nc1nc2ccc(Oc3ccc(NC(=O)Nc4cc(C(F)(F)F)ccc4F)cc3)cc2s1.Cl [GW693917A]", "True"),
    ("CC1=C(C(=O)Nc2ccc3[nH]ncc3c2)C(c2ccc(Cl)c(Cl)c2)CC(=O)N1 (centres unmarked) [GSK299115A]", "False"),
    ("Cl.O=C(O[C@H]1CN[C@H](C#Cc2cc3ncnc(Nc4ccc5c(cnn5Cc5ccccc5)c4)c3s2)C1)N1CCOCC1 [GSK200398A]", "False"),
    ("COc1cc(C)c(N(C)C(=O)CN(C)C)cc1Nc1nc(Nc2cccc(F)c2C(N)=O)c2cc[nH]c2n1", "True"),
    ("COc1cc(N2CCN(C(C)C)CC2)ccc1Nc1nc(Nc2ccc(F)cc2C(=O)NC[C@@H](O)CO)c2cc[nH]c2n1 [GSK1392956A]", "True"),
]

====

- Test system: SLK
- Study Conditions: Compound Concentration (nM):1000
Recorded Percent Control by entry
Experimental Endpoint: Percent Control (%)

# Compound, Units Label, Measured Number
records = [
    ("O=C1Nc2ccc(C(=O)c3ccco3)cc2C1=Cc1cc(Cl)c(O)c(Cl)c1 [GW406108X]", "%", 100),
    ("Cl.O=C(Nc1ccc(Oc2ccc3[nH]c(NC(=O)c4ccccc4)nc3c2)cc1)Nc1cc(C(F)(F)F)ccc1F [GW709042A]", "%", 70),
    ("COc1cc(C=NNc2ncnc3c2cnn3-c2ccccc2)ccc1O [GW513184X]", "%", 79),
    ("CC(C)COC(=O)c1ccc2c(c1)/C(=C/Nc1ccc(S(N)(=O)=O)cc1)C(=O)N2 [GW416981X]", "%", 100),
    ("CCS(=O)(=O)c1ccc(OC)c(Nc2ncc(-c3cccc(OC)c3)o2)c1 [GW580509X]", "%", 100),
]

====

- Tested on: MLK1
- Construct: gene MAP3K9
- Study Conditions: Compound Concentration (nM):1000
Entry flag: 1.0 if Percent Control reaches 90%; 0.0 if it does not.

# Compound, Category
measured = [
    ("COc1ccccc1-c1cc(/C=C2\\C(=O)Nc3ncc(Br)cc32)cc(Br)c1O [GW442130X]", 1.0),
    ("C[C@@H](Oc1cc(-n2cnc3ccc(OC4CCN(C)CC4)cc32)sc1C(N)=O)c1ccccc1Cl [GSK579289A]", 0.0),
    ("CN1CCN(C(=O)c2ccc(NC(=O)Nc3ccc(N(C)c4ccnc(Nc5ccc(CS(C)(=O)=O)cc5)n4)cc3)cc2)CC1.Cl [GW830263A]", 0.0),
    ("Cl.O=C(Nc1ccc(Oc2ccc3[nH]c(NC(=O)c4ccccc4)nc3c2)cc1)Nc1cc(C(F)(F)F)ccc1F [GW709042A]", 1.0),
    ("CC1=C(C(=O)Nc2ccc3[nH]ncc3c2)C(c2ccc(Cl)c(Cl)c2)CC(=O)N1 (stereo not shown) [GSK299115A]", 0.0),
    ("CN(C)CCNC(=O)Nc1ccc(N(C)c2ccnc(Nc3ccc(CS(C)(=O)=O)cc3)n2)cc1.Cl [GW830900A]", 1.0),
]

====

- Test system: CDKL1
- Study Conditions: Compound Concentration (nM):1000
Please note: rule met applies when Percent Control is 90% or greater, and rule not met applies otherwise.

# Compound, Target Under Test, Category
records = [
    ("Cl.O=S1CCN(Cc2ccc(-c3ccc4ncnc(Nc5ccc(OCc6ccccc6)c(F)c5)c4c3)o2)CC1 [GW576924A]", "CDKL1", "rule met"),
    ("COc1cc(C)c(N(C)C(=O)CN(C)C)cc1Nc1nc(Nc2cccc(F)c2C(N)=O)c2cc[nH]c2n1 [GSK2219385]", "CDKL1", "rule not met"),
    ("Cl.O=C(Nc1ccc(Oc2ccc3[nH]c(NC(=O)c4ccco4)nc3c2)cc1)Nc1cc(C(F)(F)F)ccc1F [GW683134A]", "CDKL1", "rule not met"),
    ("COc1ccccc1-c1cc(/C=C2\\C(=O)Nc3ncc(Br)cc32)cc(Br)c1O [GW442130X]", "CDKL1", "rule met"),
    ("COc1cc(N2CCN(C(C)C)CC2)ccc1Nc1nc(Nc2ccc(F)cc2C(=O)NC[C@@H](O)CO)c2cc[nH]c2n1 [GSK1392956A]", "CDKL1", "rule met"),
    ("NS(=O)(=O)c1ccc(N/N=C2\\C(=O)Nc3ccc(C(=O)NCc4ccncc4)cc32)cc1 [GW300657X]", "CDKL1", "rule not met"),
    ("C[C@@H](Oc1cc(-n2cnc3ccc(OC4CCN(C)CC4)cc32)sc1C(N)=O)c1ccccc1Cl [GSK579289A]", "CDKL1", "rule not met"),
    ("CCc1ccc(Oc2nccc(-c3c(-c4ccc(F)cc4)ncn3C3CCNCC3)n2)cc1 [SB-242719]", "CDKL1", "rule not met"),
    ("O=C(Nc1n[nH]c2nc(-c3ccc(O)cc3)c(Br)cc12)C1CC1 [SB-725317]", "CDKL1", "rule met"),
    ("CCS(=O)(=O)c1ccc(OC)c(Nc2ncc(-c3cccc(OC)c3)o2)c1 [GW580509X]", "CDKL1", "rule met"),
    ("COc1cc2ncn(-c3cc(O[C@H](C)c4ccccc4Cl)c(C(N)=O)s3)c2cc1OC [GSK237701A]", "CDKL1", "rule met"),
    ("NS(=O)(=O)c1ccc(N/N=C2\\C(=O)Nc3ccc(-c4cnco4)cc32)cc1 [GW276655]", "CDKL1", "rule not met"),
    ("CCS(=O)(=O)c1ccc(OC)c(Nc2ncc(-c3cccc(F)c3)o2)c1 [GW621970X]", "CDKL1", "rule met"),
    ("Nc1ncnc2occ(-c3ccc(NC(=O)Nc4cc(C(F)(F)F)ccc4F)cc3)c12 [GW770249X]", "CDKL1", "rule met"),
    ("Cl.c1ccc(Cc2nc3ccc(Nc4ncnc5ccccc45)cc3[nH]2)cc1 [GR269666A]", "CDKL1", "rule met"),
]
